Test system: SF-539
Test: NCI tumour cell line growth inhibition, 48 h
Active and inactive are the calls of the source. Cut-off read from the data, not from the text of the source: active = GI50 up to about 1.1 µM and inactive = higher.
Measured GI50 accompanies every entry in the list below.

CCCCc1ccc(Nc2nc(N)c3[nH]cnc3n2)cc1
18.8 µM (inactive)
O=C(O)c1ccc(N/C(=C(/C(Cl)=C(Cl)Cl)[N+](=O)[O-])n2nnc3ccccc32)cc1
> 100 µM (inactive)

Challenge: Quick check: GI50 of COc1cc(/C=C2\C[C@H]3[C@@H]4CCC5=CC(=O)CC[C@]5(C)[C@H]4CC[C@]3(C)C2=O)cc(OC)c1OC ?
Response given: 46.7 µM (inactive)

Challenge: What about this molecule? C[C@]12CC[C@H]3[C@@H](CC=C4C[C@@H](O)CC[C@@]43C)[C@@H]1C/C(=C\c1ccc([N+](=O)[O-])cc1)[C@@H]2O
Response given: 17.1 µM (inactive)

Challenge: What about this molecule? O=C(CCl)Nc1ccc(-c2nc3ccccc3s2)cc1
Response given: 3.04 µM (inactive)

Challenge: What about this molecule? CCN(CC)CCNC(=O)c1nn(C)c(=S)[nH]c1=S
Response given: > 100 µM (inactive)

Challenge: What about this molecule? CC1=N/C(=C\c2ccc([N+](=O)[O-])cc2)C(=O)O1
Response given: > 100 µM (inactive)

----------
Measured GI50 accompanies every entry in the list below.
Tested on: EKVX
Experiment: NCI tumour cell line growth inhibition, 48 h
Activity calls are given as the source filed them. No stated cut-off is given here; in the data, active = GI50 up to about 1.1 µM and inactive = higher.

Challenge: Quick check: GI50 of O=C(NCCCCCCCCNC(=O)Nc1cccc2ccccc12)Nc1cccc2ccccc12 ?
Response given: 62.1 µM (inactive)

Challenge: What about this compound? COc1ccc(C2SCC(=O)N2NC(=O)C(C)Oc2ccccc2C)cc1 (stereo not given)
Response given: > 100 µM (inactive)

Challenge: What about this compound? C[C@]12C[C@H](c3ccccc3)Nc3ccccc3N1C(c1ccccc1)=NO2
Response given: 21 µM (inactive)

Challenge: What about this compound? C1=C2C3=[N+](CCCCC3)CC2Cc2ccsc21 (stereo not given)
Response given: 53.5 µM (inactive)

Challenge: What about this compound? Cc1ccc(S(=O)(=O)N/N=C/c2oc(-c3cccc([N+](=O)[O-])c3)c(-c3cccc([N+](=O)[O-])c3)c2[N+](=O)[O-])cc1
Response given: > 100 µM (inactive)

----------
System: CCRF-CEM
Test: NCI tumour cell line growth inhibition, 48 h
Active and inactive are the calls of the source. Cut-off read from the data, not from the text of the source: active = GI50 up to about 1.1 µM and inactive = higher.
ASSAY ENDPOINT: GI50

Cc1ccc(S(=O)(=O)N/N=C/c2oc(-c3cccc([N+](=O)[O-])c3)c(-c3cccc([N+](=O)[O-])c3)c2[N+](=O)[O-])cc1
19.5 µM (inactive)
CCc1ccc(Cc2ccc(CC)c(NC(=O)C(=O)Cc3nc4ccccc4nc3C)c2CC)c(CC)c1NC(=O)C(=O)Cc1nc2ccccc2nc1C
42.7 µM (inactive)
Cc1cccc2c(=O)c3cccc([C@H](C)C(=O)O)c3oc12
> 100 µM (inactive)
O=C(N/N=C(\c1ccccc1)c1ccccn1)NC1CCCCC1
40.8 µM (inactive)
COc1cc(=O)n2c3ccccc3n(C)c2c1C#N
> 100 µM (inactive)
n1onc2c1NC1Nc3nonc3NC1N2 (stereo unspecified)
> 100 µM (inactive)
CCC(=O)Nc1ccc(/N=C/c2cccc(Oc3ccccc3)c2)cc1
12.6 µM (inactive)
O=C(O)[C@@]1(Cc2ccc(O)cc2)C[C@@H]2Cc3ccccc3N2N1
> 100 µM (inactive)

# next molecule below
Challenge: Recorded GI50 for CCN(CC)C(=O)CCCCCCCCC1CO1 (stereo unspecified) with CCRF-CEM, please?
Response given: > 100 µM (inactive)

----------
Test system: LOX IMVI
Assay: NCI tumour cell line growth inhibition, 48 h
Calls of active or inactive are those of the source. Cut-off read from the data, not from the text of the source: active = GI50 up to about 1.1 µM and inactive = higher.
ASSAY ENDPOINT: GI50

Check out these entries, answers already filled in.
N#CC1(N2CCCC2)CCC2(CC1)OCCO2
> 100 µM (inactive)
CC(=O)O[C@H]1CC[C@@]2(C)C(=CC[C@@H]3[C@@H]2CC[C@]2(C)c4c(cc(C#N)c(=N)n4C(C)=O)C[C@@H]32)C1
16.7 µM (inactive)
CCOC(=O)CCC(NC(=O)c1ccc(Nc2nc3ccccc3n3cccc23)cc1)C(=O)OCC (stereo unspecified)
26.1 µM (inactive)

Challenge: Quick check: GI50 of C/C(=C\c1ccccc1)C(=O)CCN1CCOCC1 ?
Response given: 16.9 µM (inactive)

Challenge: What about this compound? N#CC1(CCCCl)CCCCC1
Response given: > 100 µM (inactive)

Challenge: What about this compound? NC1=Nc2ncccc2C(=O)NN1
Response given: > 10 µM (inactive)

----------
System: NCI-H460
Assay: NCI tumour cell line growth inhibition, 48 h
The source made the active and inactive calls. Cut-off read from the data, not from the text of the source: active = GI50 up to about 1.1 µM and inactive = higher.
Measured GI50 accompanies every entry in the list below.

O=C(O)CCSC(CC1(c2ccc(Cl)cc2)NC(=O)CCS1)c1ccccc1 (stereo not drawn)
16.8 µM (inactive)
O=C(Cn1nnc(-c2ccccc2)n1)N/N=C/c1cn(Cc2ccc(Cl)cc2Cl)c2ccccc12
> 100 µM (inactive)
CCCC#CC(O)(C(=O)OC1CCN(C)CC1)C1CCCCC1 (stereo not drawn)
> 100 µM (inactive)
COc1ccc(/C=C/c2sc3ccccc3[n+]2CCCCI)cc1OC
> 10 µM (inactive)

Challenge: Quick check: GI50 of Cc1c(C(=O)C/C(=N/NC(=O)c2ccccc2)C(=O)Nc2ccc(Cl)cc2)[n+]([O-])c2ccccc2[n+]1[O-] ?
Response given: 49.1 µM (inactive)

Challenge: What about this compound? COC1=CC(c2ccc(Br)[nH]2)=N/C1=C/NCC(C)C
Response given: 1.62 µM (inactive)

Challenge: What about this compound? COc1ccc(O)c2c1C(=O)CCCC2=O
Response given: > 100 µM (inactive)

Challenge: What about this compound? O=C(Nc1cc(Cl)c(Cl)cc1Cl)C(=O)C(C(=O)c1ccccc1)C1OC(=O)c2ccccc21 (stereo not drawn)
Response given: > 100 µM (inactive)

Challenge: What about this compound? CCCCn1c(C)c(C(=O)OCC)c2cc(OCc3ccc(C(=O)Nn4c(C)ccc4C)cc3)c(Br)cc21
Response given: > 100 µM (inactive)

Challenge: What about this compound? CN1CCc2[nH]c3ccccc3c2C1
Response given: > 100 µM (inactive)

Challenge: What about this compound? CCCCC[C@@H]1CCCC2NC(CCCCCO[Si](c3ccccc3)(c3ccccc3)C(C)(C)C)CCC21 (stereo partly drawn)
Response given: 16.2 µM (inactive)

Challenge: What about this compound? CC1CC2OC(=O)C(C)C2CC2(C)C(OC3OC(CO)C(O)C(O)C3O)OCCC12 (stereo not drawn)
Response given: > 100 µM (inactive)

Challenge: What about this compound? O=C1Oc2cc3c(c4cccc1c24)OCN(c1ccc(Cl)cc1)C3
Response given: 2.31 µM (inactive)

Challenge: What about this compound? O=C1C2=C(C(c3ccccc3)=C1c1ccccc1)c1ccccc1C1(c3ccccc3)C2=C(O)C(c2ccccc2)=C1c1ccccc1 (stereo not drawn)
Response given: > 100 µM (inactive)

Challenge: What about this compound? Cc1ccc(S(=O)(=O)N/N=C/c2oc(-c3cccc([N+](=O)[O-])c3)c(-c3cccc([N+](=O)[O-])c3)c2[N+](=O)[O-])cc1
Response given: > 100 µM (inactive)

Challenge: What about this compound? COC(=O)N/N=C(\Cc1ccccc1)CN(C)C
Response given: > 100 µM (inactive)

Challenge: What about this compound? Nc1n[n+]([O-])c2cnccc2[n+]1[O-]
Response given: 34.8 µM (inactive)

Challenge: What about this compound? CC(C)(C)CC(C)(C)c1cc2c(O)c(c1)Cc1cc(C(C)(C)CC(C)(C)C)cc(c1O)Cc1cc(C(C)(C)CC(C)(C)C)cc(c1O)Cc1cc(C(C)(C)CC(C)(C)C)cc(c1O)Cc1cc(C(C)(C)CC(C)(C)C)cc(c1O)Cc1cc(C(C)(C)CC(C)(C)C)cc(c1O)C2
Response given: > 100 µM (inactive)

----------
Measured GI50 accompanies every entry in the list below.
Test system: HT-29
Experiment: NCI tumour cell line growth inhibition, 48 h
Structures can show the parent of a compound that is named as a salt. Calls of active or inactive are those of the source. Cut-off read from the data, not from the text of the source: active = GI50 up to about 1.1 µM and inactive = higher.

CCCCCC#COC1CC(C)CC[C@@H]1C(C)C (some centres not stated)
59.4 µM (inactive)
CCOc1cc(NC(C)=O)ccc1C(=O)NN1C(=O)C(Oc2ccccc2)C1c1ccccc1 (configuration not stated)
> 100 µM (inactive)
O=C(N/N=C(\c1ccccc1)c1ccccn1)NC1CCCCC1
59.2 µM (inactive)

# next molecule below
Challenge: Quick check: GI50 of CC1=NCCc2c1[nH]c1cc(O)ccc21 [HARMALOL HYDROCHLORIDE] ?
Response given: > 100 µM (inactive)

----------
Tested on: Malme-3M
Assay: NCI tumour cell line growth inhibition, 48 h
Calls of active or inactive are those of the source. No stated cut-off is given here; in the data, active = GI50 up to about 1.1 µM and inactive = higher.
ASSAY ENDPOINT: GI50

Check out these entries, answers already filled in.
COc1ccc(Oc2cccc(C3C4C(=O)N(c5ccc(C)c(Cl)c5)C(=O)C4ON3C(C(N)=O)c3ccccc3)c2)cc1 (stereo not given)
15.8 µM (inactive)
CCCCCCCCCCCc1cc(=O)c2c(O)cccc2o1
> 100 µM (inactive)
O=C(Nc1cc(Cl)c(Cl)cc1Cl)C(=O)C(C(=O)c1ccccc1)C1OC(=O)c2ccccc21 (stereo not given)
> 100 µM (inactive)
CCCCn1c(C)c(C(=O)OCC)c2cc(OCc3ccc(C(=O)Nn4c(C)ccc4C)cc3)c(Br)cc21
> 100 µM (inactive)

# next compound below
Challenge: Quick check: GI50 of O=C(CCl)Nc1ccc(-c2nc3ccccc3s2)cc1 ?
Response given: 2.07 µM (inactive)
